Value source: paper PMC4809600

// reported Percentage intact, CWE + PIC 48h for each item listed
assay: Stability in CWE with protease inhibitor cocktail (PIC), capillary zone electrophoresis; assay type: in vitro ADME, human; settings: 1 mg/ml in PBS mixed 1:1 with CWE (1 mg/ml protein, pool of 5 donors) in PBS containing PIC (final 1:140 v/v), 37°C, 48 h; CZE, ratio to imidazole, 0 h = 100%; experiment 2 of 3
Where no end group is shown, it is not given here.
Field format: number, assumed %, no unit text.

[
  {
    "substance": "SHREFPFYGDYGS [mad-Hst1]",
    "Percentage intact, CWE + PIC 48h / %": 78.1025
  },
  {
    "substance": "DSHEKRHHGYRRKFHEKHHSHREFPFYGDYGSNYLYDN [Hst1]",
    "Percentage intact, CWE + PIC 48h / %": 59.1893
  }
]

Query :: // query Percentage intact, CWE + PIC 48h value for entry RKFHEKHHSHREFPFYGDYGSNYLYDN [Hst2]
Result :: 66.2527

Query :: Same lookup for cyclo(DNLPETGGDSHEKRHHGYRRKFHEKHHSHREFPFYGDYGSNYLY) [cHst1] , please.
Result :: 72.203
